The reported numbers originate from ChEMBL document CHEMBL1124845.

Test system: Human betaherpesvirus 5
PROTOCOL_DETAILS: Tested for antiviral activity against human cytomegalovirus (HCMV) by means of plaque reduction assay.
Format: functional, organism-based
// reported IC50 per item
RECORDED_ENDPOINT: IC50

> print(dat)
                    molecule.smiles  reported.value
1    COC(=N)c1nn(COCCO)c2ncnc(N)c12        > 100 µM
2           N#Cc1nnc2nc[nH]c(N)c1-2           68 µM
3        N#Cc1nn(COCCO)c2ncnc(N)c12        > 100 µM
4     NC(=O)c1nn(COCCO)c2ncnc(N)c12        > 100 µM
5  CC(=O)OCCOCn1nc(C#N)c2c(N)ncnc21        > 100 µM
6     NC(=S)c1nn(COCCO)c2ncnc(N)c12          2.5 µM

###

System: Human alphaherpesvirus 1
PROTOCOL_DETAILS: Tested for antiviral activity against herpes simplex virus-1(HSV-1) by means of plaque reduction assay.
Assay type: functional, organism-based
pIC50: −log10 of the molar value.
RECORDED_ENDPOINT: pIC50

> print(dat)
                    molecule.smiles                    target  reported.value
1     NC(=O)c1nn(COCCO)c2ncnc(N)c12  Human alphaherpesvirus 1          < 4.00
2    COC(=N)c1nn(COCCO)c2ncnc(N)c12  Human alphaherpesvirus 1          < 4.00
3        N#Cc1nn(COCCO)c2ncnc(N)c12  Human alphaherpesvirus 1          < 4.00
4  CC(=O)OCCOCn1nc(C#N)c2c(N)ncnc21  Human alphaherpesvirus 1          < 4.00
5     NC(=S)c1nn(COCCO)c2ncnc(N)c12  Human alphaherpesvirus 1            5.05
6           N#Cc1nnc2nc[nH]c(N)c1-2  Human alphaherpesvirus 1            4.80
